- Assay Details: NCI Yeast Anticancer Drug Screen. Data for the cln2 rad14 strain (AID 165);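 further: 0% = growth equal to vehicle treated cultures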
- Measurement Setup: S. cerevisiae cln2 rad14 strain, at 50.0 µM, active compounds read high
About 79,000 compounds went through this panel and 15% of them were active in at least one assay; those are over-represented in the sample as a whole. The source made the active and inactive calls. No stated cut-off is given here; in the data, active means growth inhibition above about 70%; inactive means the rest.
Readings of growth inhibition for the listed molecules
Readout Label: growth inhibition

Molecule: COC(=O)c1[nH]c(=O)c(C#N)c(C(=O)OC)c1-c1ccc(F)cc1
Readout Label: growth inhibition
Value: -2% (inactive)
//
Molecule: Cc1ccc(S(=O)(=O)Nc2nnc(CC(C)C)s2)cc1
Readout Label: growth inhibition
Value: 28.1% (inactive)
//
Molecule: COC(=O)CC1(C(=O)OC)Nc2ccc(Cl)cc2C(=O)O1 (stereo unspecified)
Readout Label: growth inhibition
Value: -19.6% (inactive)
//
Molecule: C/C=C(\CC)C(C#N)(CCC)C(=O)OCC (stereo unspecified)
Readout Label: growth inhibition
Value: -9% (inactive)
//
Molecule: C=CC(C)(O)/C=C/C=C(\C)C(CC1OC1(C)C)OC(=O)/C(C)=C\C (stereo unspecified)
Readout Label: growth inhibition
Value: 10.3% (inactive)
//
Molecule: COC1OC(COC(=O)c2ccccc2)C(OC(=O)c2ccccc2)C(OC(=O)c2ccccc2)C1OC(=O)c1ccccc1 (stereo unspecified)
Readout Label: growth inhibition
Value: -9.4% (inactive)
//
Molecule: C=CC1=C(C)C2=NC1=CC1=NC(=CC3=C(C)C4=C(O)C(C(=O)OC)C(=C5NC(=C2)C(C)C5CCC(=O)OC/C=C(\C)CCCC(C)CCCC(C)CCCC(C)C)C4=N3)C(CC)=C1C (stereo unspecified)
Readout Label: growth inhibition
Value: 3.4% (inactive)
//
Molecule: COc1ccc2c(c1)c(=O)c1ccccc1n2/C=C/C(=O)O
Readout Label: growth inhibition
Value: 3.75% (inactive)
//
Molecule: C=C1CC/C=C(\C)CCC2C1CC2(C)C (stereo unspecified)
Readout Label: growth inhibition
Value: 12.2% (inactive)
//
Molecule: Cc1ccn2nnnc2c1
Readout Label: growth inhibition
Value: 1% (inactive)
//
Molecule: S=c1nc[nH]c2c1CNC2
Readout Label: growth inhibition
Value: 1.7% (inactive)

====

- Assay Details: NCI Yeast Anticancer Drug Screen. Data for the bub3 strain (AID 167)
- Measurement Setup: S. cerevisiae bub3 mutant strain, at 50.0 µM, active compounds read high
The panel holds about 79,000 compounds, 15% with a hit somewhere; the sample as a whole holds those more often.

Compound: CCCOC(=O)c1ccccc1C(=O)OC1CCCCC1
growth inhibition / %: -2.4
//
Compound: COc1ccc(CC2c3cc(OC)c(OC)cc3CCN2C(=O)c2ccccc2)cc1OC (stereo unspecified)
growth inhibition / %: 10.7
//
Compound: COc1cc(/C=C/C(=O)OCC23CC[C@@]4(C(=O)O)CCC(C)[C@H](C)C4C2=CCC2[C@@]4(C)CC[C@H](O)C(C)(C)C4CC[C@]23C)ccc1O (stereo partly specified)
growth inhibition / %: -1.6
//
Compound: C=CCN(CC=C)C(=O)Nc1cccc2c(NC(=O)N(CC=C)CC=C)cccc12
growth inhibition / %: -21.8
//
Compound: O=C(Nc1cc(C(=O)Nc2cccc(S(=O)(=O)O)c2)cc(C(=O)Nc2cccc(S(=O)(=O)O)c2)c1)c1cccc(C(=O)Nc2cc(C(=O)Nc3cccc(S(=O)(=O)O)c3)cc(C(=O)Nc3cccc(S(=O)(=O)O)c3)c2)c1
growth inhibition / %: 4.8
//
Compound: Br/C(=N\Nc1nn[nH]n1)c1ccncc1
growth inhibition / %: -21.8
//
Compound: O=C1O/C(=C/c2ccc(O)cc2)c2ccccc21
growth inhibition / %: 6.9
//
Compound: CCNC1=C(C(=O)OCC)C(=O)CO1
growth inhibition / %: 0.3
//
Compound: Cc1ccc(O)c(C(=O)CCCC(=O)c2cc(C)ccc2O)c1
growth inhibition / %: -8.3
//
Compound: c1ccc([Si]2(c3ccccc3)[Si](c3ccccc3)(c3ccccc3)[Si](c3ccccc3)(c3ccccc3)[Si]2(c2ccccc2)c2ccccc2)cc1
growth inhibition / %: -0.45
//
Compound: S=C1N(/N=C/c2c3ccccc3cc3ccccc23)C(=Nc2ccccc2)C(=Nc2ccccc2)N1c1ccccc1
growth inhibition / %: 16.6
//
Compound: N[C@H](CCC(=O)NCP(=O)(O)O)C(=O)O
growth inhibition / %: -10.8
//
Compound: CN(/N=C/c1cccc2cccnc12)c1ccccc1
growth inhibition / %: 14.6
//
Compound: C[N+](C)(C)C1C2(CCCCC2)NC(=O)C12CCCCC2 (stereo unspecified)
growth inhibition / %: -5.85
//
Compound: O=c1cnn2c(n1)sc1ccc3ccccc3c12
growth inhibition / %: 26.5
//
Compound: CCCCCCCCCCCCCCCCCC(=O)NC(=O)Nc1ccc(C)cc1
growth inhibition / %: -9.65
//
Compound: CN(C)c1ccc(-c2nc(N)nc3c2CCCC3)cc1
growth inhibition / %: -6
//
Compound: CCOC(CNCCC(=O)OC)OCC
growth inhibition / %: -5.35
//
Compound: CN(CC(=O)c1ccc(Cl)cc1)Cc1ccccc1
growth inhibition / %: 0.9
//
Compound: C/C(=N/O)c1ccc(C(F)(F)F)cc1
growth inhibition / %: -48.5
//
Compound: COc1cc2c(cc1OC)-c1cc3ccc(OC)c(OC)c3c[n+]1CC2
growth inhibition / %: -9.45
